Recorded IC50 by entry
# Target Or System: mouse TRPM3α2 (mTRPM3) ion channel (Mus musculus)
# Assay Method Text: Monitoring the TRPM3 ion channel driven Ca2+ uptake (Fluo-4 AM assay)
# Measurement Conditions: TRPM3 overexpressing flip-in HEK293 cells, channel stimulated with Pregnenolone sulfate (PS) 50 μM

Worked cases, IC50 given:
INSERT INTO assay_data (compound, measured_attribute, observed_measurement) VALUES
  ('Cc1sc2ccc(OCc3ccccc3)cc2c1C(=O)N[C@H]1CCNC1=O', 'IC50', '< 1000 nM'),
  ('Cc1ncsc1COc1ccc2sc(C)c(C(=O)N[C@@H]3CCN(CCO)C3=O)c2c1', 'IC50', '1000 to 20000 nM'),
  ('Cc1sc2ccc(OCc3cccnc3C(F)(F)F)cc2c1C(=O)Nc1ccn(C)n1', 'IC50', '< 1000 nM'),
  ('Cc1ncsc1COc1ccc2sc(C)c(C(=O)N[C@@H](CO)C(N)=O)c2c1', 'IC50', '< 1000 nM'),
  ('Cc1sc2ccc(OCc3ccccc3)cc2c1C(=O)NC1CCN(C)C1 (stereo not drawn)', 'IC50', '< 1000 nM'),
  ('Cc1ncc(COc2ccc3sc(C)c(C(=O)NC(C)(CO)C(N)=O)c3c2)s1 (single isomer, unassigned) [Cpd 019 - En1]', 'IC50', '< 1000 nM'),
  ('Cc1sc2ccc(OCc3ccccc3F)cc2c1C(=O)NC(C)(C)C(N)=O', 'IC50', '< 1000 nM'),
  ('Cc1sc2ccc(OCc3ccccc3)cc2c1C(=O)NCc1cccc(O)n1', 'IC50', '> 20000 nM');

[in] Look up IC50 for this compound: Cc1sc2ccc(OCc3ccccc3)cc2c1C(=O)NC1CC(F)(F)C1
[out] > 20000 nM

[in] Look up IC50 for this compound: O=C(NC1(CO)CCOCC1)c1c(C(F)F)sc2ccc(OCc3ccccc3)cc12
[out] > 20000 nM

[in] Look up IC50 for this compound: Cc1sc2ccc(OCc3ccccc3)cc2c1C(=O)NC1CN(C)CC1(F)F (stereo not drawn)
[out] < 1000 nM

[in] Look up IC50 for this compound: Cc1sc2ccc(OCc3ccccc3F)cc2c1C(=O)N[C@@H]1CCN(CCO)C1=O
[out] 1000 to 20000 nM

[in] Look up IC50 for this compound: Cc1ncsc1COc1ccc2sc(C)c(C(=O)NC3(C(N)=O)CCOCC3)c2c1
[out] < 1000 nM

====

# Target Or System: mouse TRPM3α2 (mTRPM3) ion channel (Mus musculus, UniProt J9SQF3)
# Construct: expressed in transfected cells; host or cells: flip-in HEK293
# Sequence (J9SQF3 1-1709 isoform J9SQF3-12): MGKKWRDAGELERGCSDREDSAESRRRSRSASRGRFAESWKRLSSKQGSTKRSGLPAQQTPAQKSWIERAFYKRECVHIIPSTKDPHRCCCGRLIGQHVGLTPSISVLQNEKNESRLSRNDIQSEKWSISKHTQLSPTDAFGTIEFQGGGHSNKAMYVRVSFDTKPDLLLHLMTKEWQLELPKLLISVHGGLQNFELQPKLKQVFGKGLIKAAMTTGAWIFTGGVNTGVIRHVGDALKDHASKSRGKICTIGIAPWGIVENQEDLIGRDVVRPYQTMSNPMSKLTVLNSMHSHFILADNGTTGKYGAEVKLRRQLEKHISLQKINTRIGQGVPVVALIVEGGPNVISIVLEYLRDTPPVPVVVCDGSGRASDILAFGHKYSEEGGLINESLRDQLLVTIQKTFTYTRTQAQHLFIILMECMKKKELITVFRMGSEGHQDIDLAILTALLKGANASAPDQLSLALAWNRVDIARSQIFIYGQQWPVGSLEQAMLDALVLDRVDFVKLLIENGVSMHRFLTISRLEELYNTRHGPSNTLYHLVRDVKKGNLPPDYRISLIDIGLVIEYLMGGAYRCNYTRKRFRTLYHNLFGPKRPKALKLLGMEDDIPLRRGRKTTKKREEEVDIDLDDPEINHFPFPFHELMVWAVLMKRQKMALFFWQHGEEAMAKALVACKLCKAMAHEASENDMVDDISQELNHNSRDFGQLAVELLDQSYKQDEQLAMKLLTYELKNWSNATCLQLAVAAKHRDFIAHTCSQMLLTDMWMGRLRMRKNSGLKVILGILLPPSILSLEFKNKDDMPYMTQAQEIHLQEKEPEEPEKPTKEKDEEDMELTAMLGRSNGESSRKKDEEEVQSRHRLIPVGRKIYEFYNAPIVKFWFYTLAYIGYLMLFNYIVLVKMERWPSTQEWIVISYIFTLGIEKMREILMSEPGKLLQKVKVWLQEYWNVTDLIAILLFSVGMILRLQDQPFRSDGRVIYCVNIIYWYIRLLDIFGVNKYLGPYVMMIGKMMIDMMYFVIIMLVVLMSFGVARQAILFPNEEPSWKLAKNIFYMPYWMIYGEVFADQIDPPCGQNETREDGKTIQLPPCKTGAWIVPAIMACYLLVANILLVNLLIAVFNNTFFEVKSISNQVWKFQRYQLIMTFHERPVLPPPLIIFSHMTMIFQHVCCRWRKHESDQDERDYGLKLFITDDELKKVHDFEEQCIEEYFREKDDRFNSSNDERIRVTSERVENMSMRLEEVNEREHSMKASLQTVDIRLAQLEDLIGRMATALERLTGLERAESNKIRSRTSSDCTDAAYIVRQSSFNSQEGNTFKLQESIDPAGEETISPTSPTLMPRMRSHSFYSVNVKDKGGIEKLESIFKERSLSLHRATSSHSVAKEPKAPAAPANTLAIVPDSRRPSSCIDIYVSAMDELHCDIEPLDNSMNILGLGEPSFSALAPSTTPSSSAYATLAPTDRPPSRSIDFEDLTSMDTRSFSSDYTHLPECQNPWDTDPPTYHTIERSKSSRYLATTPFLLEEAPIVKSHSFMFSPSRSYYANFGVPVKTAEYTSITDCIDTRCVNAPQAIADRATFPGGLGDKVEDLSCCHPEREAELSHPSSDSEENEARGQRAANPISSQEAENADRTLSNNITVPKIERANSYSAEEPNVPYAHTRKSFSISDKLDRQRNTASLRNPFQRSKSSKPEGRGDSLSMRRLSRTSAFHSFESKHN
# Assay Method Text: Monitoring the TRPM3 ion channel driven Ca2+ uptake (Fluo-4 AM assay)
# Type: cell-based
# Measurement Conditions: TRPM3 overexpressing flip-in HEK293 cells, channel stimulated with Pregnenolone sulfate (PS) 50 μM
Measured Attribute: IC50

Worked cases, IC50 given:
INSERT INTO assay_data (molecule, observed_measurement) VALUES
  ('Cc1ncc(COc2ccc3sc(C)c(C(=O)NC4(C(N)=O)CCOCC4)c3c2)s1 [Cpd 021]', '< 1000 nM'),
  ('Cc1ncsc1COc1ccc2sc(C)c(C(=O)NCC3CCC(=O)N3)c2c1 (stereo not shown) [Cpd 046]', '< 1000 nM'),
  ('Cc1ncsc1COc1ccc2sc(C)c(C(=O)O)c2c1 [Cpd 049]', '1000 to 20000 nM'),
  ('Cc1ncsc1COc1ccc2sc(C)c(C(=O)NCC(C)(C)N3CCOCC3)c2c1 [Cpd 044]', '< 1000 nM'),
  ('Cc1ncsc1COc1ccc2sc(C)c(C(=O)NC3(CO)CCC3)c2c1 [Cpd 035]', '< 1000 nM'),
  ('Cc1sc2ccc(OCc3cccnc3C(F)(F)F)cc2c1C(=O)N[C@@H](CO)C(N)=O [Cpd 053]', '< 1000 nM');

[in] Look up IC50 for this molecule: CNC(=O)c1c(C)sc2ccc(OCc3scnc3C)cc12 [Cpd 137]
[out] 1000 to 20000 nM

[in] Look up IC50 for this molecule: Cc1sc2ccc(OCc3cccnc3C(F)(F)F)cc2c1C(=O)NC1CCN(C)CC1 [Cpd 129]
[out] < 1000 nM

[in] Look up IC50 for this molecule: Cc1ncc(COc2ccc3sc(C)c(C(=O)NC4(CO)CC4)c3c2)s1 [Cpd 022]
[out] 1000 to 20000 nM

[in] Look up IC50 for this molecule: Cc1ncc(COc2ccc3sc(C)c(C(=O)NC4(CO)CCC4)c3c2)s1 [Cpd 023]
[out] < 1000 nM

[in] Look up IC50 for this molecule: Cc1ncsc1COc1ccc2sc(C)c(C(=O)NC(C)(CO)CO)c2c1 [Cpd 032]
[out] < 1000 nM

[in] Look up IC50 for this molecule: CC(C)(O)CNC(=O)c1c(C(F)F)sc2ccc(OCc3ccccc3)cc12 [Cpd 014]
[out] > 20000 nM

[in] Look up IC50 for this molecule: CN1CCC(NC(=O)c2c(C(F)F)sc3ccc(OCc4ccccc4)cc23)C1 (stereo not shown) [Cpd 124]
[out] 1000 to 20000 nM

[in] Look up IC50 for this molecule: Cc1sc2ccc(OCc3ccccn3)cc2c1C(=O)NC(C)(C)C(N)=O [Cpd 064]
[out] < 1000 nM

[in] Look up IC50 for this molecule: CNC(=O)C(C)(CO)NC(=O)c1c(C)sc2ccc(OCc3cnc(C)s3)cc12 (single isomer, unassigned) [Cpd 132 - En2]
[out] < 1000 nM

[in] Look up IC50 for this molecule: Cc1ncsc1COc1ccc2sc(C)c(C(=O)NC3CCN(C)CC3)c2c1 [Cpd 130]
[out] 1000 to 20000 nM

[in] Look up IC50 for this molecule: Cc1sc2ccc(OCc3cccnc3O)cc2c1C(=O)NC1(C(=O)O)CCOCC1 [Cpd 072]
[out] > 20000 nM

[in] Look up IC50 for this molecule: Cc1sc2ccc(OCC3CC3)cc2c1C(=O)N[C@@H](CO)C(N)=O [Cpd 050]
[out] < 1000 nM

[in] Look up IC50 for this molecule: Cc1sc2ccc(OCc3ccccc3)cc2c1C(=O)NC1(CO)CC1 [Cpd 073]
[out] 1000 to 20000 nM
